The measured values listed here are drawn from ChEMBL document CHEMBL4428078.

assay: Fraction unbound in human plasma; type: ADME, cell-free

# compound smiles, fraction unbound
records = [
    ("C[C@@]1(c2ccc(F)cc2F)C[C@@H](c2cncnc2)SC(N)=N1", 0.37),
]

====

assay: Ratio of drug level in brain to plasma of rat at 10 mg/kg, po measured at 5 hrs post dose; assay type: ADME, organism-based; conditions: read-out: BPR
test readout: Kp at 5 h

# compound smiles, test readout, assay value
rows = [
    ("C[C@@]1(c2ccc(F)cc2F)C[C@@H](c2cncnc2)SC(N)=N1", "Kp at 5 h", 1.8),
]

====

assay: Metabolic stability in human liver microsomes assessed as compound remaining at 0.5 uM measured after 10 mins; format: ADME, Microsome; details: read-out: Stability

# compound smiles, remaining at 10 min, 0.5 µM [%]
data = [
    ("CCc1noc(C)c1[C@@H]1C[C@@](C)(c2ccc(F)cc2F)N=C(N)S1", 21),
    ("Cc1noc(C)c1[C@@H]1C[C@@](C)(c2ccc(F)cc2)N=C(N)S1", 73),
    ("Cc1noc(C)c1[C@@H]1C[C@@](C)(c2ccccc2)N=C(N)S1", 86),
    ("Cc1onc(-c2ccc(F)cc2)c1[C@@H]1C[C@@](C)(c2ccc(F)cc2F)N=C(N)S1", 24),
    ("Cc1noc(C)c1[C@@H]1C[C@@](C)(c2sccc2Cl)N=C(N)S1", 11),
    ("CCc1noc(CC)c1[C@@H]1C[C@@](C)(c2ccc(F)cc2F)N=C(N)S1", 35),
    ("Cc1noc(C(F)F)c1[C@@H]1C[C@@](C)(c2ccc(F)cc2F)N=C(N)S1", 35),
    ("Cn1nccc1[C@@H]1C[C@@](C)(c2ccc(F)cc2F)N=C(N)S1", 70),
    ("Cc1noc(C)c1[C@@H]1C[C@@](C)(c2ccc(F)cc2F)N=C(N)S1", 24),
    ("Cc1nocc1[C@@H]1C[C@@](C)(c2ccc(F)cc2F)N=C(N)S1", 65),
]

====

Reported Kp at 3 h values for the following compounds.
assay: Ratio of drug level in brain to plasma of mouse at 30 mg/kg, po measured at 3 hrs post dose; assay type: ADME, organism-based; conditions: read-out: BPR
test readout: Kp at 3 h

# compound smiles, assay value
records = [
    ("Cc1noc(C)c1[C@@H]1C[C@@](C)(c2ccc(F)cc2F)N=C(N)S1", 0.75),
    ("C[C@@]1(c2ccc(F)cc2F)C[C@@H](c2cncnc2)SC(N)=N1", 1.8),
    ("Cn1nccc1[C@@H]1C[C@@](C)(c2ccc(F)cc2F)N=C(N)S1", 1.3),
    ("Cc1noc(C)c1[C@@H]1C[C@@](C)(c2cc(-c3cncnc3)c(F)cc2F)N=C(N)S1", 0.08),
]

====

Reported remaining at 10 min, 0.5 µM values for the following compounds.
assay: Metabolic stability in rat liver microsomes assessed as compound remaining at 0.5 uM measured after 10 mins; format: ADME, Microsome; conditions: read-out: Stability
test readout: remaining at 10 min, 0.5 µM (%)

# compound smiles, test readout, units label, assay value
measured = [
    ("Cc1onc(-c2ccccc2)c1[C@@H]1C[C@@](C)(c2ccc(F)cc2F)N=C(N)S1", "remaining at 10 min, 0.5 µM", "%", 13),
    ("Cn1nccc1[C@@H]1C[C@@](C)(c2ccc(F)cc2F)N=C(N)S1", "remaining at 10 min, 0.5 µM", "%", 78),
    ("Cc1noc(C)c1[C@@H]1C[C@@](C)(c2sccc2Cl)N=C(N)S1", "remaining at 10 min, 0.5 µM", "%", 12),
    ("Cc1nocc1[C@@H]1C[C@@](C)(c2ccc(F)cc2F)N=C(N)S1", "remaining at 10 min, 0.5 µM", "%", 77),
    ("Cc1noc(C)c1[C@@H]1C[C@@](C)(c2ccc(F)cc2)N=C(N)S1", "remaining at 10 min, 0.5 µM", "%", 78),
    ("Cc1onc(-c2cccnc2)c1[C@@H]1C[C@@](C)(c2ccc(F)cc2F)N=C(N)S1", "remaining at 10 min, 0.5 µM", "%", 5),
    ("Cc1noc(C)c1[C@@H]1C[C@@](C)(c2ccc(F)cc2F)N=C(N)S1", "remaining at 10 min, 0.5 µM", "%", 78),
    ("CCc1noc(C)c1[C@@H]1C[C@@](C)(c2ccc(F)cc2F)N=C(N)S1", "remaining at 10 min, 0.5 µM", "%", 59),
    ("C[C@@]1(c2ccc(F)cc2F)C[C@@H](c2cncnc2)SC(N)=N1", "remaining at 10 min, 0.5 µM", "%", 95),
    ("Cc1noc(C(F)F)c1[C@@H]1C[C@@](C)(c2ccc(F)cc2F)N=C(N)S1", "remaining at 10 min, 0.5 µM", "%", 67),
]
